tested on: Strep. suis (group D) SPS11; test: MIC against veterinary bacteria in vitro; details: Streptococcus suis, 18 h
# MIC per entry

INSERT INTO measurements (smiles_notation, subject_of_test, endpoint_result) VALUES
  ('C/C(=C\c1nc(C)c(C)o1)C[C@@H]1OC[C@H](C[C@@H]2O[C@H]2[C@@H](C)[C@H](C)O)[C@@H](O)[C@H]1O', 'Strep. suis (group D) SPS11', '> 80 µg/mL'),
  ('CSc1cccc(-c2cnc(/C=C(\C)C[C@@H]3OC[C@H](C[C@@H]4O[C@H]4[C@@H](C)[C@H](C)O)[C@@H](O)[C@H]3O)o2)c1', 'Strep. suis (group D) SPS11', '20 µg/mL'),
  ('C/C(=C/c1ncc(-c2ccccc2)o1)C[C@@H]1OC[C@H](C[C@@H]2O[C@H]2[C@@H](C)[C@H](C)O)[C@@H](O)[C@H]1O', 'Strep. suis (group D) SPS11', '> 80 µg/mL'),
  ('COc1ccc(-c2cnc(/C=C(\C)C[C@@H]3OC[C@H](C[C@@H]4O[C@H]4[C@@H](C)[C@H](C)O)[C@@H](O)[C@H]3O)o2)cc1', 'Strep. suis (group D) SPS11', '20 µg/mL');

Field: next compound
## Task Input C/C(=C\c1cc(-c2ccccc2)on1)C[C@@H]1OC[C@H](C[C@@H]2O[C@H]2[C@@H](C)[C@H](C)O)[C@@H](O)[C@H]1O , output reported MIC.
## Result 80 µg/mL

Numbers sourced from patent US5041567A.
